Data credit: paper PMC8742467

tested on: histone modifications in 2102EP cells; assay: Mass spectrometry analysis of histone modifications (Mod Spec); format: cell-based, Human; conditions: 2102EP cells; Mod Spec raw data; histone H4 K16 unmodified
# Lookup of reported H4: K16UN, % of peptide pool keyed by entry

Example results:
{"Molecule": "O=C1C(=Cc2cccnc2)C(=O)c2ccccc21 [PRT4165]", "Property": "H4: K16UN, % of peptide pool", "Result": "54.4218 % of peptide pool"}
{"Molecule": "Cc1ncsc1-c1ccc(CNC(=O)[C@@H]2C[C@@H](O)CN2C(=O)[C@@H](NC(=O)COCCOCCOCCNC(=O)C[C@@H]2N=C(c3ccc(Cl)cc3)c3c(sc(C)c3C)-n3c(C)nnc32)C(C)(C)C)cc1 [MZ-1]", "Property": "H4: K16UN, % of peptide pool", "Result": "50.8173 % of peptide pool"}

Proceeding to the next molecule to report its H4: K16UN, % of peptide pool.
# lookup: H4: K16UN, % of peptide pool of Cn1cc(CNCC2CCN(c3ncc(C(=O)NO)cn3)CC2)c2ccccc21 [Quisinostat]
30.6454 % of peptide pool
